Ref: ChEMBL document CHEMBL1772954

test system: Candida tropicalis; test: Antifungal activity against Candida tropicalis C 131 2000; assay type: functional
Readout label: MIC

Answered cases to consult:
O=C1C=CC(=O)N1c1ccc2c(c1)OCO2
31.2 mg/L
O=C1CCC(=O)N1c1ccccc1
> 250 mg/L
CCN1C(=O)C=CC1=O [N-ETHYLMALEIMIDE]
62.5 mg/L
CC1=C(C)C(=O)N(CCCc2ccccc2)C1=O
> 250 mg/L

# CC1=CC(O)N(Cc2ccccc2)C1=O (centres undefined) with Candida tropicalis: MIC is > 250 mg/L

# `CC1=CC(=O)N(c2ccccc2)C1=O` with Candida tropicalis: MIC is 62.5 mg/L

# `O=C1C(c2ccccc2)=C(c2ccccc2)C(=O)N1Cc1ccccc1` with Candida tropicalis: MIC is > 250 mg/L

# `O=C(O)/C=C\C(=O)NCCCc1ccccc1` with Candida tropicalis: MIC is > 250 mg/L

====

tested on: Trichophyton mentagrophytes; test: Antifungal activity against Trichophyton mentagrophytes ATCC 9972; type: functional
Readout label: MIC (µg/mL)
Report as a plain number; the unit µg/mL is understood.

Answered cases to consult:
O=C1C=CC(O)N1CCc1ccccc1 (stereo not given)
31.2
CC1=C(C)C(=O)N(CCCc2ccccc2)C1=O
250
CC(C)(C)c1ccccc1N1C(=O)C=CC1=O
1.95
CC1=CC(=O)N(CCc2ccccc2)C1=O
31.2

`O=C1C=CC(=O)N1c1ccc(I)cc1` yielded MIC of 3.9

`O=C1C=CC(=O)N1CCCCc1ccccc1` yielded MIC of 3.9

`CC1=C(C)C(=O)N(c2ccccc2)C1=O` yielded MIC of 125

O=C1C=CC(O)N1CCCc1ccccc1 (stereo not given) yielded MIC of 31.2

`O=C1C=CC(=O)N1c1ccccc1` yielded MIC of 7.81

`CC1=C(C)C(=O)N(Cc2ccccc2)C1=O` yielded MIC of 125

====

test system: Aspergillus niger; assay: Antifungal activity against Aspergillus niger ATCC 9029; assay type: functional
Readout label: MFC

Answered cases to consult:
CC1=CC(=O)N(CCCCc2ccccc2)C1O (configuration not stated)
> 250 µg/mL
O=C1C=CC(=O)N1c1ccc(F)cc1
7.81 µg/mL
O=C1C=CC(O)N1CCCCc1ccccc1 (configuration not stated)
> 250 µg/mL

`O=C1CCC(=O)N1CCc1ccccc1` yielded MFC of > 250 µg/mL

`O=C1C(c2ccccc2)=C(c2ccccc2)C(=O)N1Cc1ccccc1` yielded MFC of > 250 µg/mL

`CC1=CC(=O)N(CCCc2ccccc2)C1=O` yielded MFC of 31.2 µg/mL

CC1=CC(O)N(c2ccccc2)C1=O (configuration not stated) yielded MFC of > 250 µg/mL

====

tested on: Trichophyton mentagrophytes; assay: Antifungal activity against Trichophyton mentagrophytes ATCC 9972; format: functional
Strictly below 8 µg/mL in MIC: YES. Otherwise: NO.

Answered cases to consult:
O=C1C(c2ccccc2)=C(c2ccccc2)C(=O)N1CCCCc1ccccc1
NO
COc1cccc(N2C(=O)C=CC2=O)c1
YES
CC1=CC(=O)N(Cc2ccccc2)C1O (stereo not drawn)
NO
O=C(O)/C=C\C(=O)NCCc1ccccc1
NO
COc1ccc(N2C(=O)C=CC2=O)c(OC)c1
YES

## Task Quick check: does CC1=CC(=O)N(c2ccccc2)C1O (stereo not drawn) have MIC under 8 µg/mL?
## Result NO

## Task Quick check: does CC1=CC(O)N(Cc2ccccc2)C1=O (stereo not drawn) have MIC under 8 µg/mL?
## Result NO

====

MIC values, listed per item
tested on: Trichophyton mentagrophytes; assay: Antifungal activity against Trichophyton mentagrophytes ATCC 9972; format: functional
Report as a plain number; the unit µg/mL is understood.

`O=C1C=CC(=O)N1c1ccc(Cl)cc1` yielded MIC of 3.9

`CC1=C(C)C(=O)N(CCCCc2ccccc2)C1=O` yielded MIC of 125

====

MIC values, listed per item
tested on: Candida tropicalis; assay: Antifungal activity against Candida tropicalis C 131 2000; type: functional
Report as a plain number; the unit µg/mL is understood.

COc1ccc(N2C(=O)C=CC2=O)cc1
62.5

`O=C1C=CC(=O)N1CCCc1ccccc1` yielded MIC of 3.9

`Cc1ccccc1N1C(=O)C=CC1=O` yielded MIC of 15.6

`O=C1C=CC(=O)N1CCCCc1ccccc1` yielded MIC of 7.81

`O=C1C=CC(=O)N1Cc1ccccc1` yielded MIC of 15.6

`O=C1C=CC(=O)N1c1ccc(F)cc1F` yielded MIC of 15.6

====

test system: Aspergillus niger; assay: Antifungal activity against Aspergillus niger ATCC 9029; assay type: functional
MIC values, listed per item
Report as a plain number; the unit µg/mL is understood.

# `COc1ccc(N2C(=O)C=CC2=O)cc1` with Aspergillus niger: MIC is 31.2

# `CCCN1C(=O)C=CC1=O` with Aspergillus niger: MIC is 15.6

# `O=C1C=CC(=O)N1c1ccc2c(c1)OCO2` with Aspergillus niger: MIC is 62.5

# `CC1=CC(=O)N(CCCCc2ccccc2)C1=O` with Aspergillus niger: MIC is 62.5

# `O=C1C=CC(=O)N1Cc1ccccc1` with Aspergillus niger: MIC is 31.2

# `Cc1ccccc1N1C(=O)C=CC1=O` with Aspergillus niger: MIC is 15.6

# `O=C1C=CC(=O)N1CCc1ccccc1` with Aspergillus niger: MIC is 15.6

# `O=C1C(Cl)=C(Cl)C(=O)N1CCCCc1ccccc1` with Aspergillus niger: MIC is 15.6

====

test system: Candida albicans; assay: Antifungal activity against Candida albicans ATCC 10213; type: functional
Readout label: MFC

Cc1ccc(N2C(=O)C=CC2=O)cc1
31.2 µg/mL
O=C1C=CC(=O)N1CCCCc1ccccc1
7.81 µg/mL
O=C(O)/C=C\C(=O)NCCc1ccccc1
> 250 µg/mL

# `CC1=C(C)C(=O)N(c2ccccc2)C1=O` with Candida albicans: MFC is > 250 µg/mL

# `C[C@@H]1[C@H](O)[C@@H](C)/C=C/C=C/C=C/C=C/C=C/C=C/C=C/[C@H](O[C@@H]2O[C@H](C)[C@@H](O)[C@H](N)[C@@H]2O)C[C@@H]2O[C@](O)(C[C@@H](O)C[C@@H](O)[C@H](O)CC[C@@H](O)C[C@@H](O)CC(=O)O[C@H]1C)C[C@H](O)[C@H]2C(=O)O` with Candida albicans: MFC is 1.95 µg/mL

# `COc1ccc(N2C(=O)C=CC2=O)cc1OC` with Candida albicans: MFC is 62.5 µg/mL

# `CC(C)(C)c1ccccc1N1C(=O)C=CC1=O` with Candida albicans: MFC is 3.9 µg/mL

# `O=C(O)/C=C\C(=O)NCCCc1ccccc1` with Candida albicans: MFC is > 250 µg/mL

# `O=C1C(c2ccccc2)=C(c2ccccc2)C(=O)N1CCc1ccccc1` with Candida albicans: MFC is > 250 µg/mL

# `O=C1C=CC(=O)N1c1ccc(F)cc1F` with Candida albicans: MFC is 31.2 µg/mL

====

test system: Aspergillus niger; experiment: Antifungal activity against Aspergillus niger ATCC 9029; type: functional
Readout label: MFC

O=C1C=CC(O)N1CCCc1ccccc1 (configuration not stated)
> 250 µg/mL
O=C(O)/C=C\C(=O)NCCCc1ccccc1
> 250 µg/mL
O=C1CCC(=O)N1c1ccccc1
> 250 µg/mL
CC1=C(C)C(=O)N(Cc2ccccc2)C1=O
> 250 µg/mL

`CC1=C(C)C(=O)N(CCc2ccccc2)C1=O` yielded MFC of > 250 µg/mL

CC1=CC(O)N(CCCCc2ccccc2)C1=O (configuration not stated) yielded MFC of > 250 µg/mL

`O=C1CCC(=O)N1Cc1ccccc1` yielded MFC of > 250 µg/mL

====

system: Cryptococcus neoformans; assay: Antifungal activity against Cryptococcus neoformans ATCC 32264; assay type: functional
MFC values, listed per item

# `O=C(O)/C=C\C(=O)Nc1ccccc1` with Cryptococcus neoformans: MFC is > 250 µg/mL

# `O=C(O)/C=C\C(=O)NCCCc1ccccc1` with Cryptococcus neoformans: MFC is > 250 µg/mL

====

tested on: Aspergillus niger; experiment: Antifungal activity against Aspergillus niger ATCC 9029; format: functional
Readout label: MIC

Answered cases to consult:
COc1cccc(N2C(=O)C=CC2=O)c1
31.2 mg/L
O=C1C=CC(=O)N1c1ccc(I)cc1
62.5 mg/L

`CC1=C(C)C(=O)N(CCCCc2ccccc2)C1=O` yielded MIC of > 250 mg/L

`O=C1C(Cl)=C(Cl)C(=O)N1CCc1ccccc1` yielded MIC of 15.6 mg/L

`CC1=C(C)C(=O)N(Cc2ccccc2)C1=O` yielded MIC of > 250 mg/L

`O=C1CCC(=O)N1CCCc1ccccc1` yielded MIC of > 250 mg/L
